Data origin, for the record: patent US20130178469A1

Test: Bioavailability and pharmacokinetic profile following intravenous and oral administration
Format: in vivo, Male Sprague Dawley Rats
Details: male, Sprague Dawley, rat, plasma, po, 10 mg/kg, PO 10 mg/kg; Rat 2; 0.25 hr
Protocol: Method: For IV infusion over 10 minutes the compound of Example 3.4 was dissolved in 20% DMSO, 30% PEG400 and 50% Water. For oral (PO) dosing AVX62738 was dissolved in 0.5% benzyl alcohol and 0.4% Tween 80 and 99.1% 0.5% hydroxypropylmethylcellulose. Compounds were dosed IV and then after a one week washout, orally in the same rats. (Body weight: Rat 1: 254.7 g; Rat 2: 253.4 g). Ex-vivo plasma samples were assayed for AVX62738 using an LC-ms method of Lower limit of quantitation. (LLOQ)=2.5 ng/mL.
quantity_kind: concentration at 0.25 hr (ng/mL)

- CN1CCN(c2cc(N3CCN(C)S3(=O)=O)c3nc(C(=O)NCc4ccc(F)cc4)c(O)c(=O)n3c2)CC1 [Example 3.4]: 78.1
